Assay: growth inhibition of S. aureus RN4220, primary screen, OD600 (AID 1259311);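 further: plate controls were untreated cells for no effect and reference antibiotic for full effect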
Details: OD600, 16 h, stronger effect = higher value
In all, about 330,000 compounds went through this assay and about 1,100 (0.33%) were called active. The sample as a whole holds a higher share of actives than the screen did.

{"columns": ["molecule", "inhibition"],
 "data": [
  ["O=C(O)c1ccc(NN=Cc2cc3ccccc3nc2Cl)cc1", "-0.883% (inactive)"],
  ["CCc1ccc2c(c1)C1(NN=C(c3ccccc3)S1)C(=O)N2 (configuration not stated)", "92.6% (active)"],
  ["COC(=O)[C@@]12CCCCN1C(c1ccc(-c3ccc4c(c3)OCO4)cc1)C1C(=O)N(C)C(=O)C12 (some centres not stated)", "-2.68% (inactive)"],
  ["O=S(=O)(NN=Cc1cccc(F)c1)c1ccccc1", "29.9% (inactive)"],
  ["CCCn1c(=O)c(C(=O)Nc2cc(C)ccn2)c(O)c2ccccc21", "8.88% (inactive)"],
  ["O=C(NN=Cc1ccsc1)c1cc(-c2cccs2)nc2ccccc12", "2.77% (inactive)"],
  ["Oc1ccc(Br)cc1C=Nn1c(COc2ccccc2)n[nH]c1=S", "5.82% (inactive)"],
  ["CC(C)(C)NC(=O)C=NO", "6.33% (inactive)"],
  ["CC(C)CCn1c(=O)c(C(=O)NN=Cc2cccc(F)c2)c(O)c2ccccc21", "101% (active)"],
  ["CC(N)=C(C#N)C(=O)CSc1ccccc1F", "5.44% (inactive)"],
  ["COc1cc(C(=O)NN=Cc2cn(Cc3cccc(F)c3)c3ccccc23)ccc1O", "-2.54% (inactive)"],
  ["CCOCC(=O)Nc1ncc(S(=O)(=O)c2ccc([N+](=O)[O-])cc2)s1", "90.6% (active)"],
  ["CCCCCn1c(=O)c(C(=O)NCc2ccccc2)c(O)c2ccccc21", "-1.56% (inactive)"],
  ["Cc1ccc(C=NNC(=O)CSc2nc3ccccc3c(=O)n2-c2ccccc2)s1", "-0.0121% (inactive)"],
  ["CCN(CC)c1ccc(C(=O)c2cnc(N=CN(C)C)s2)cc1", "8.12% (inactive)"],
  ["CCc1ccc(C=NNc2nn[nH]n2)cc1", "0.812% (inactive)"],
  ["C#CCOCCOCCOCCNc1nc(N2CCN(C(=O)C(CCCCN)n3cc(CCC(=O)O)nn3)CC2)nc(N2CCN(C(=O)C(C(C)O)n3cc(CCCCN)nn3)CC2)n1 (configuration not stated)", "-0.306% (inactive)"],
  ["CN(C)c1ccc(C(=NO)C(F)(F)F)cc1", "19.2% (inactive)"],
  ["O=C(NC(Nc1nc2ccc([N+](=O)[O-])cc2s1)(C(F)(F)F)C(F)(F)F)c1ccccc1", "100% (active)"],
  ["COc1cccc(C2=CC(=O)CC(c3ccc4c(c3)OCO4)C2)c1OC (configuration not stated)", "4.85% (inactive)"],
  ["CCCn1c(=O)c(-c2ccccc2)c(O)c2ccccc21", "4.44% (inactive)"],
  ["C1=CC2CCN(Cc3ccccc3)Cc3cccc(c32)C1 (configuration not stated)", "4.59% (inactive)"]
]}

----------
Below, each entry is listed alongside its reported inhibition.
Assay: growth inhibition of S. aureus RN4220, primary screen, OD600 (AID 1259311);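 further: plate controls were untreated cells for no effect and reference antibiotic for full effect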
Conditions: OD600, 16 h, stronger effect = higher value
Out of some 330,000 compounds screened, about 1,100 (0.33%) were called active. The full list was thinned out, with actives kept by preference.

{"columns": ["compound", "inhibition [%]"],
 "data": [
  ["N#CC1=C(SCc2ccccc2)NC(=O)C(C#N)C12CCCC2 (centres undefined)", 13.6],
  ["Cc1cc(C(=O)NN=Cc2cc(Cl)cc([N+](=O)[O-])c2O)n[nH]1", 7.38],
  ["COc1c(N2CCN(C(=S)Nc3ccccc3F)C(C)C2)c(F)cc2c(=O)c(C(=O)O)cn(C3CC3)c12 (centres undefined)", 99.8],
  ["O=S(=O)([N-]c1nc2ccccc2nc1-[n+]1ccc(Cc2ccccc2)cc1)c1ccc(Br)s1", 94.6],
  ["C/C(C=Nn1c(-c2cccnc2)n[nH]c1=S)=C\\c1ccco1", 12.6],
  ["O=C(CC(O)(C(F)(F)F)C(F)(F)F)Nc1ccc(Cl)c(Cl)c1", 100],
  ["CC1CN(C(=S)Nc2ccccc2F)CC(C)O1 (centres undefined)", -2.44],
  ["FC(F)(F)c1cccc(NC(=S)Nc2cccc(Cl)c2)c1", 100],
  ["Cc1cc(Cl)ccc1OCCCC(=O)NN=Cc1cccc([N+](=O)[O-])c1", -5.47],
  ["C/[N+]([O-])=C\\c1ccc([N+](=O)[O-])o1", 97.6],
  ["COc1ccccc1NC(=S)N1CCN(c2ccc(F)cc2)CC1", 3.36],
  ["CCCCCN1CC(O)=C(c2ccccc2)C1=N", 7.74],
  ["COC(=O)C1=C(C)N(c2ccc(C)cc2)/C(=C/c2ccc(O)cc2)C1=O", 84.9],
  ["CCOc1ccc(Br)cc1C(=O)NN=Cc1c[nH]c2ccccc12", -6.23],
  ["O=C(NN=Cc1ccc(F)cc1)c1ccc(F)cc1", 4.01],
  ["COc1cc(C=NNC(=O)c2cccc([N+](=O)[O-])c2)ccc1O", -1.37],
  ["CCOC(=O)C=c1sc(=Cc2c(OCC)ccc3ccccc23)c(=O)n1CC(=O)NCC1CCCO1 (centres undefined)", -2.12],
  ["O=C(NN=Cc1ccccc1)c1ccc(CN2C(=O)c3cccc4cccc2c34)cc1", 0.745],
  ["O=C(NN=Cc1c[nH]c2ccccc12)c1[nH]c2ccc(Br)cc2c1-c1ccccc1", 86.5],
  ["CCCCCCCCCCCCn1ccc(=N)cc1", 101],
  ["Cc1ccc(NCC(=O)NN=Cc2ccc([N+](=O)[O-])o2)cc1", 7.24],
  ["COC(=O)C1(C)NC(c2ccc(C)cc2)C2C(=O)N(c3ccc(F)cc3)C(=O)C21 (centres undefined)", -0.392],
  ["O=C(c1cccc([N+](=O)[O-])c1)N1CCN(Cc2ccccc2)CC1", 2.33],
  ["COc1ccc(C2C=CCN(C(=O)Nc3ccccc3-c3ccccc3)CC(=O)N2Cc2ccc(F)cc2)cc1 (centres undefined)", 4.3],
  ["Cc1nnc(SCC(=O)NC2CCCC2)s1", -0.203],
  ["CN(C)C=Nc1sc2c(c1C#N)CC(C)(C)NC2(C)C", 2.77],
  ["Cc1cccc(OCC(=O)NC2CC(C)(C)NC(C)(C)C2)c1", -1.7],
  ["CC(=NNC(=O)c1nnn(-c2nonc2N)c1CSc1ccc(C)cc1)c1ccco1", 4.06],
  ["C=C[C@]1(C)CC(OC(=O)CSCCN(CC)CC)[C@]2(C)C(C)CC[C@]3(CCC(=O)C32)C(C)C1O (some centres undefined)", 101],
  ["CC(C)(C)OC(=O)C1=C(CO)CS[C@@H]2[C@H](NC(=O)Cc3ccccc3)C(=O)N12", 99.2],
  ["NC(=O)N1CCCC1C(=O)Nc1ccc(Cl)c(Cl)c1 (centres undefined)", 0.288],
  ["COc1ccc(C=NN=Cc2ccc(OC)c(OC)c2)cc1OC", -1.08],
  ["O=C(/C=C/c1ccc([N+](=O)[O-])o1)NNC(=O)c1ccc(F)cc1", 99.6],
  ["COC(=O)[C@@]1(Cc2ccc(OC)cc2)C2c3cc(C(=O)N4CCCC4)n(CCSCCO)c3CC2CN1C(=O)c1ccccc1 (some centres undefined)", 3.17],
  ["CC(=NNC(=O)CNc1ccccc1)c1ccccc1", 0.316],
  ["O=C(NCc1ccccc1)C1=CC(c2ccc(C(F)(F)F)cc2)CC(OCc2ccc(CO)cc2)O1 (centres undefined)", 5.86],
  ["COC(=O)Cc1ccc(OCC(=O)NC2CCCC2)cc1", 2.26],
  ["CCCc1ccc(OCC(=O)NNC(=S)NC(=O)c2ccco2)cc1", 102],
  ["N#CC1=C(SCc2ccc(C#N)cc2)N=C(N)C(c2nc(-c3ccccc3)cs2)C12CCCCC2 (centres undefined)", 98.3],
  ["CC(C(O)c1ccccc1)N(C)C(=O)CCc1ccccc1 (centres undefined)", 0.814],
  ["COc1cccc(C=NNC(=O)CSCC(=O)Nc2ccccc2)c1O", 3.38],
  ["Cc1nnc(SCc2cc(=O)[nH]c(N3CCN(Cc4ccccc4)CC3)n2)s1", 1.62],
  ["O=C(Cc1ncc(C(F)(F)F)cc1Cl)Nc1cccc(Br)c1", -2.16],
  ["COc1cccc(C=NNc2cc(-n3nc(C)cc3-c3ccccc3)ncn2)c1O", 99.8]
]}

----------
Assay: growth inhibition of S. aureus RN4220, primary screen, OD600 (AID 1259311);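 further: plate controls were untreated cells for no effect and reference antibiotic for full effect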
Details: OD600, 16 h, stronger effect = higher value
Hit rate of the full screen: of about 330,000 compounds, about 1,100 (0.33%) were called active. Shown is part of a subset that was picked to be rich in actives.
assay.readout: inhibition (%)

{"columns": ["query.smiles", "assay.readout", "reading.unit", "value.reported"],
 "data": [
  ["COc1ccccc1CN1CCN(C(c2ccccc2)c2ccccc2)CC1", "inhibition", "%", -0.651],
  ["O=C(CN1CCSCC1)NN=Cc1ccc(F)cc1F", "inhibition", "%", 6.36],
  ["CC1(C)CC(N2CCN(C(c3ccccc3)c3ccccc3)CC2)=CC(=[N+]2CCCCC2)C1", "inhibition", "%", 100],
  ["C=CCn1c(CNc2ccccc2)nnc1SCC(=O)NN=Cc1ccccc1O", "inhibition", "%", 1.54],
  ["Cc1nc2ccccc2c(=O)n1-c1ccc(Cl)cc1Cl", "inhibition", "%", 2.26],
  ["O=C(CSc1nc2ccccc2c(=O)n1-c1ccc(F)cc1)NC1CC1", "inhibition", "%", -2.32],
  ["COc1ccc(CCN2C(=O)CSC2=NNC(=O)c2cccs2)cc1OC", "inhibition", "%", 2.01],
  ["CCN1/C(=C/c2ccc3ccc(C)cc3[n+]2CC)Sc2ccccc21", "inhibition", "%", 100],
  ["COc1c(O)ccc(C=NNC(=O)c2ccc3c(c2)OCCO3)c1[N+](=O)[O-]", "inhibition", "%", 0.97],
  ["N#CC(=NNc1cc(Cl)cc(Cl)c1)c1nnc2n1CCCCC2", "inhibition", "%", 0.845],
  ["CCOc1cccc(-c2c(C(=O)NN=Cc3ccc(C)o3)nnn2-c2nonc2N)c1", "inhibition", "%", 4.52]
]}
